Each entry below carries its measured pKi, system: purified human Factor XIa (Homo sapiens, UniProt P03951).
Sequence (P03951 388-625 limits assumed): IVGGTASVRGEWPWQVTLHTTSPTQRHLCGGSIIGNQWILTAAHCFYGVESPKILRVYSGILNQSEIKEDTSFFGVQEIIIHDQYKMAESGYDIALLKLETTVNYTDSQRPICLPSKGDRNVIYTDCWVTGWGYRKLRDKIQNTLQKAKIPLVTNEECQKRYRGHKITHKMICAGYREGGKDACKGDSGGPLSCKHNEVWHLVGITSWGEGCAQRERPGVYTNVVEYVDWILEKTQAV
Sequence (P03951 19-387 partner limits assumed): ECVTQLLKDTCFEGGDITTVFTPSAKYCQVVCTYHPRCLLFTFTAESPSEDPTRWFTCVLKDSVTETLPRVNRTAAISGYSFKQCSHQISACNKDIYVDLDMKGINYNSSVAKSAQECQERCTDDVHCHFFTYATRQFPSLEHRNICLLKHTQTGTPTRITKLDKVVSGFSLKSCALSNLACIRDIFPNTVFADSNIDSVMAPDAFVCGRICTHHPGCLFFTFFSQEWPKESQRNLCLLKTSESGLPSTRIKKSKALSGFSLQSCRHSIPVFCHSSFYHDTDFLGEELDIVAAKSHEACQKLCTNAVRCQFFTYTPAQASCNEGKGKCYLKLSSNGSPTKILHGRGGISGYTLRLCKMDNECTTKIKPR
Scale explanation: pKi corresponds to minus log10 of a concentration expressed in moles per litre.

Q: Consider the compound shown here: O=C1CCCCC[C@H](n2cnc(-c3cc(Cl)ccc3-n3cc(C(F)(F)F)nn3)cc2=O)C(=O)Nc2ccc(C(=O)O)cc2N1 What is its recorded pKi?
Result: 6.76

Q: Also check C[C@@H]1CCC[C@H](n2cnc(-c3c(-n4cc(C(F)(F)F)nn4)ccc(Cl)c3F)cc2=O)C(=O)NCc2ccccc2NC1=O
Result: 8.37

Q: Also check C[C@@H]1CCC[C@H](n2cnc(-c3cc(Cl)ccc3-n3cc(C(F)(F)F)nn3)cc2=O)C(=O)NCc2cc(F)ccc2NC1=O
Result: 7.73

Q: Also check COC(=O)c1ccc2c(c1)NC(=O)CCCCC[C@H](n1cnc(-c3cc(Cl)ccc3-n3cc(C(F)(F)F)nn3)cc1=O)C(=O)N2
Result: 6.25

Q: Also check C[C@@H]1CCC[C@H](n2ccc(-c3cc(Cl)ccc3-n3cc(Cl)nn3)cc2=O)C(=O)NCc2ccccc2NC1=O
Result: 8.00

Q: Also check CC1NC(=O)[C@@H](N2CCC(c3cc(Cl)ccc3-n3cc(C(F)(F)F)nn3)=CC2=O)CCC[C@@H](C)C(=O)Nc2ccccc21 (single isomer, unassigned; diastereomer b) [Example 22]
Result: 5.43
